molecular target: human Mer (Homo sapiens, UniProt Q12866); construct: GST (N); test: Kinase enzymatic activity assay (33P-radiolabeled phosphate transfer), Mer; details: recombinant human Mer (578-872), poly(4:1 glu:tyr) substrate, 30 minutes
Sequence (Q12866 578-872): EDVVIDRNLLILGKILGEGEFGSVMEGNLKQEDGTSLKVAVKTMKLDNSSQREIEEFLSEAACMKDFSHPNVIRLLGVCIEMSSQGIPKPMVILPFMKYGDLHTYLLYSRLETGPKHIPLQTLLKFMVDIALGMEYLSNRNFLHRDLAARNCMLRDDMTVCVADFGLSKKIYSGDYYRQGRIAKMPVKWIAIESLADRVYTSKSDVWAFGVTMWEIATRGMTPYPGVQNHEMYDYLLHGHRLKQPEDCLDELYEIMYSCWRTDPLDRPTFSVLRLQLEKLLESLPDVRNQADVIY
pIC50: −log10 of the molar value.
readout: pIC50

mol=COC(=O)Cc1cccc(Oc2ncnc3cc(OCCCN4CCOCC4)cc(OC)c23)c1 tested_on="human Mer (Homo sapiens, UniProt Q12866)" endpoint_result="5.00 to 6.00"
mol=CN(C)CCCOc1cc(OC2CCOCC2)c2c(Nc3nc(C(F)(F)F)cs3)ncnc2c1 tested_on="human Mer (Homo sapiens, UniProt Q12866)" endpoint_result="5.00 to 6.00"
mol=COCCN1CCN(c2cc(OC3CCOCC3)c3c(Nc4nc(C(F)(F)F)cs4)ncnc3c2)CC1 tested_on="human Mer (Homo sapiens, UniProt Q12866)" endpoint_result="< 5.00"
mol=Cc1csc(Nc2ncnc3cc(OCC4CCN(C)CC4)cc(OC4CCOCC4)c23)n1 tested_on="human Mer (Homo sapiens, UniProt Q12866)" endpoint_result="> 6.30"
mol=CN1CCN(CCOc2cc(OC3CCOCC3)c3c(Nc4nccs4)ncnc3c2)CC1 tested_on="human Mer (Homo sapiens, UniProt Q12866)" endpoint_result="> 6.30"

Problem: Item under review: `CCN(CC)CCNc1cc(OC2CCOCC2)c2c(Nc3nc(C(F)(F)F)cs3)ncnc2c1` . Reported pIC50?
Solution: < 5.00

Problem: Request the reported pIC50 associated with `CN1CCN(CCCOc2cc(OC3CCOCC3)c3c(Oc4ccc(F)cc4Cl)ncnc3c2)CC1`
Solution: > 6.30
